System: MCF7
Experiment: Cytotoxicity against human MCF7 cells assessed as reduction in cell viability incubated for 48 hrs by CCK-8 assay
Format: functional, cell-based
Settings: MCF7, 48 h
pIC50: −log10 of the molar value.
Recorded pIC50 for the following compounds

compound: C[C@@H]1C[C@@H]([C@@H](CC2CC(=O)NC(=O)C2)O[C@H]2O[C@H](CO)[C@@H](O)[C@H](O)[C@H]2O)C(=O)[C@@H](C)C1
resultModifier: <
pIC50: 4.70

compound: Cc1cc(C)c(O[C@@H]2O[C@@H](C)[C@H](O)[C@@H](O)[C@H]2O)c(C(=O)CC2CC(=O)NC(=O)C2)c1
resultModifier: <
pIC50: 4.70

compound: COc1cccc2c1C(=O)c1c(O)c3c(c(O)c1C2=O)C[C@@](O)(C(=O)CO)C[C@@H]3O[C@H]1C[C@H](N)[C@H](O)[C@H](C)O1
resultModifier: =
pIC50: 6.01

compound: C[C@@H]1C/C(=C\CC2CC(=O)NC(=O)C2)C(=O)[C@@H](C)C1
resultModifier: <
pIC50: 4.70

compound: C[C@@H]1C[C@@H]([C@H](O)CC2CC(=O)NC(=O)C2)C(=O)[C@@H](C)C1 [CYCLOHEXIMIDE]
resultModifier: =
pIC50: 6.28
